assayed system: MHC class II molecule I-Ad (mouse (endogenous in A20 lymphoma cells))
assay info: radioligand binding
reported conditions: scale: relative to unlabeled OVA peptide 323-339
readout type: relative binding to MHC
Answer with a bare number; do not write a unit.

Completed entries (count: 5):
EFISEAIIHVLH [sperm whale myoglobin (SWM) peptide 105-116] : 1.5
KYLEFIGEAIIH [SWM peptide 102-113-[G108]] : 0.011
LEFIGEAIIHVL [SWM peptide 104-115-[G108]] : 0.013
EFISEAIIHLLH [SWM peptide 105-116-[L114]] : 0.18
IKYLEFIGEAII [SWM peptide 101-112-[G108]] : 0.003

get_value(item= EFISEAIIPVLH [SWM peptide 105-116-[P113]] , readout=relative binding to MHC) returns 1.8

get_value(item= EFISEAIIHILH [SWM peptide 105-116-[I114]] , readout=relative binding to MHC) returns 0.01

get_value(item= EFGSEAIIHVLH [SWM peptide 105-116-[G107]] , readout=relative binding to MHC) returns 0.34

get_value(item= AIIHVLHSRHPG [sperm whale myoglobin (SWM) peptide 110-121] , readout=relative binding to MHC) returns 0.59

get_value(item= YLEFIGEAIIHV [SWM peptide 103-114-[G108]] , readout=relative binding to MHC) returns 0.04
